# System: RARb homodimer (NR concentration 270 nM)
# assay-comment: PBM binding z-score (relative to random genomic background probes); higher = stronger binding; sequences stand for … in GC…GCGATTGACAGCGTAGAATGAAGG
Returns true (1) if the recorded PBM binding z-score is greater than or equal to 0.8, and false (0) otherwise.

| residues | label |
| --- | --- |
| AGAACGAGCGCACGCTGAGTTGATAGCAGAGTAG | false (0) |
| TCTAGTAGATCAGCAGGTTAAGAAAGCTGGCCAA | false (0) |
| CAAACTAGGTCACCGGAAGGTCAACGTCCGCATG | true (1) |
| CTCGAAAGGTCGTGCTCAGGTTAGTATACCAAAC | true (1) |
| CGAACTATGTCAGAACAGGACAGTGAAGGATGAT | false (0) |
| TCTAGTTGGTCACGGAGGTCACACACGACGGGTA | true (1) |
| CCTAGCAGGCCAGGGGCACTCAAGCATTTCGCTT | false (0) |
| CAAACTAGGTCACGATAGGTCAAAGTCGAATGAC | true (1) |
| CTCGAAAAGTCGTGCTCAGGTGAGTATACCAAAC | false (0) |
| CCTACTGGGCCAAGGCCATTGATCAGTCAAAGCA | false (0) |
| CCTCGGAGGACGACAGGAGGTCAGAGCTGCCAGA | true (1) |
| AGTCAAAGTTCAGGACGAAGTAACGTAAAGCACG | true (1) |
| TCTATTAGTTGATTAGGGCAGCCGAAACAGCGGA | false (0) |
| TTGCCAAGGTGAAGGTCGTTGATCCCTCTGTAGA | true (1) |
| GGAACGAGGGGAAAGTTGATAGCATCTGTCGACG | false (0) |
| GCTGCTAGGTCAGATTGGTCAGCTAACGGGTACG | true (1) |
| CATATTAGTTGACCATAAGGGCAACCGAAGCTCG | true (1) |
| CAAACTAGGTCACAGGAAGGTCAAAGTCCGCATG | true (1) |
| TCTCGGAGGACACGAAGGGCAGAGCTTTCCAGAG | true (1) |
| CCTGCTAGGTCACGGTCAGCTAATCTACAGTATG | true (1) |
| CGAAGTAGGTCATCCAGGACAGTGAATACATTGA | true (1) |
| ATCTCTAGGTAACAAGTTCAGTGTAAGAGAGGAC | true (1) |
| CCGACTGGGGCAAGGTTACCCTAACGCACAGCCA | true (1) |
| CCTGCTAGGTCCTGGTCAGCTAATCTACAGTATG | false (0) |
| GCATATAGGTAATACAAGGGGAAAGTCCGATTGT | false (0) |

meta.source: the supplement of paper PMC6555819
